Biological target: endogenous cellular BACE2 (Rattus norvegicus, UniProt Q6IE75)
Construct: endogenous cellular BACE2 in the Ins1e rat cell line; endogenous in cells
Sequence (Q6IE75 63-514): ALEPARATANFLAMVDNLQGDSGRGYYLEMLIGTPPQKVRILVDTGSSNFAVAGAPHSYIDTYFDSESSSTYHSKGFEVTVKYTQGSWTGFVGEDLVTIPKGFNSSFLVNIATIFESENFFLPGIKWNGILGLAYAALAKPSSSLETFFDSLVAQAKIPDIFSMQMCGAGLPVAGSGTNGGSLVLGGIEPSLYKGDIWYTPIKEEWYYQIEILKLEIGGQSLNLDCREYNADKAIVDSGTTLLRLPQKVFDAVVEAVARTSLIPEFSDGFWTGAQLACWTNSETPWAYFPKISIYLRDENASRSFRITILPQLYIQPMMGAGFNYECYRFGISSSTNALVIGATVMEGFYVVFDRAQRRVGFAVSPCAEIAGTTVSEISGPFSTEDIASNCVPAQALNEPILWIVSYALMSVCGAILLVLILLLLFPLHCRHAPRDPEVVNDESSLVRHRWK
Assay: Assay for BACE inhibition by measuring cellular TMEM27 cleavage
Settings: INS-TMEM27 (INS1e-derived) cells, shed human TMEM27 in supernatant by ELISA
pIC50: −log10 of the molar value. Structures can show the parent of a compound that is named as a salt.
MEASUREMENT_KIND: pIC50

Solved entries (count: 5):
C[C@@]1(c2cc(NC(=O)c3ncc(C(F)(F)F)cc3Cl)ccc2F)COCCC(N)=N1; 6.92
CC[C@]1(c2cc(NC(=O)c3ccccn3)ccc2F)N=C(N)COCC1(F)F; 7.05
C[C@]1(c2cc(NC(=O)c3ccc(OCC(F)F)cn3)ccc2F)N=C(N)COCC1(F)F [Example 60, formate]; 5.38
CC[C@]1(c2cc(NC(=O)c3ncccc3C(F)(F)F)ccc2F)N=C(N)COCC1(F)F; 6.75
C[C@]1(c2cc(NC(=O)c3ncc(F)cc3F)ccc2F)N=C(N)COCC1(F)F [Example 32, formate]; 8.36

(I) C[C@@]1(c2cc(NC(=O)C3(C(F)(F)F)CC3)ccc2F)CCOCC(N)=N1
(II) Cc1ccc(C(=O)Nc2ccc(F)c([C@@]3(C)N=C(N)COCC3(F)F)c2)nc1 [Example 94, formate]
Q: Rank I against II by their pIC50 values and give the higher one. When you have decided, please share the label of that item.
Ans: II

(a) C[C@]1(c2cc(NC(=O)c3ccc(C(F)F)cn3)ccc2F)N=C(N)COCC1(F)F [Example 108, formate]
(b) Cc1nc(C(=O)Nc2ccc(F)c([C@@]3(C)N=C(N)COCC3(F)F)c2)co1 [Example 42, formate]
(c) C[C@@]1(c2cc(NC(=O)c3ccc(F)cn3)ccc2F)C[C@@H](c2ccccc2)OCC(N)=N1
(d) C[C@]1(c2cc(NC(=O)c3ncc(C#N)cc3Cl)ccc2F)N=C(N)COCC1(F)F [Example 56, formate]
(e) C[C@]1(c2cc(NC(=O)c3ccc(OCC(F)(F)C(F)F)cn3)ccc2F)N=C(N)COCC1(F)F [Example 54, formate]
Q: Rank entries according to their pIC50, from the largest number down. Kindly provide the labels arranged according to the requested ordering.
Ans: b, d, a, e, c

(1) CC[C@@]1(c2cc(NC(=O)c3ccc(Cl)cn3)ccc2F)CCOCC(N)=N1
(2) C[C@]1(c2cc(NC(=O)c3ccc(OCC(F)(F)F)cn3)ccc2F)N=C(N)COCC1(F)F [Example 49, formate]
Q: Could you check which of 1 and 2 has a smaller value for pIC50? When you have decided, please share the label of that item.
Ans: 2

(1) C[C@]1(c2cc(NC(=O)c3csc(Cl)n3)ccc2F)N=C(N)COCC1(F)F [Example 66, formate]
(2) C[C@]1(c2cc(NC(=O)c3ccc(OC(F)F)cn3)ccc2F)N=C(N)COCC1(F)F [Example 48, formate]
(3) CC1(C)OCC(N)=N[C@](C)(c2cc(NC(=O)c3ccc(Cl)cn3)ccc2F)C1(F)F
(4) C[C@]1(c2cc(NC(=O)c3ncccc3C(F)(F)F)ccc2F)N=C(N)COCC1(F)F [Example 37, formate]
(5) C[C@]1(c2cc(NC(=O)c3ccc(F)cn3)ccc2F)N=C(N)COCC1(F)F [Example 29, formate]
Q: Rank entries according to their pIC50, from the largest number down. Kindly provide the labels arranged according to the requested ordering.
Ans: 5, 3, 4, 1, 2
(5: 8.48, 3: 8.04, 4: 7.60, 1: 7.26, 2: 7.06)

(A) C[C@@]1(c2cc(NC(=O)c3ncc(Cl)cc3Cl)ccc2F)CCOCC(N)=N1
(B) C[C@@]1(c2cc(NC(=O)c3ccc(C#N)cn3)ccc2F)COCCC(N)=N1
Q: Rank A against B by their pIC50 values and give the higher one. When you have decided, please share the label of that item.
Ans: A

(a) C[C@]1(c2cc(NC(=O)c3cnc(OCC(F)F)cn3)ccc2F)N=C(N)COCC1(F)F [Example 74, formate]
(b) Cn1cc(Cl)c(C(=O)Nc2ccc(F)c([C@@]3(C)N=C(N)COCC3(F)F)c2)n1 [Example 41, formate]
(c) CC[C@@]1(c2cc(NC(=O)c3ccc(F)cn3)ccc2F)CCOCC(N)=N1
Q: Arrange the 3 entries by pIC50 so the values rise. Kindly provide the labels arranged according to the requested ordering.
Ans: a, c, b

(A) CC[C@@]1(c2cc(NC(=O)c3ncc(Cl)cc3Cl)ccc2F)CCOCC(N)=N1
(B) CC[C@]1(c2cc(NC(=O)c3n[nH]cc3Cl)ccc2F)N=C(N)COCC1(F)F
Q: Rank A against B by their pIC50 values and give the higher one. When you have decided, please share the label of that item.
Ans: A
(A: 7.42, B: 6.31)

(P) CC1(C)C[C@@](C)(c2cc(NC(=O)C3CC3(F)F)ccc2F)N=C(N)CO1 (some centres unmarked)
(Q) CCc1ocnc1C(=O)Nc1ccc(F)c([C@@]2(C)N=C(N)COCC2(F)F)c1
Q: Could you check which of P and Q has a smaller value for pIC50? When you have decided, please share the label of that item.
Ans: Q
(Q: 6.93, P: 7.25)

* * *

System: Aβ40
Assay: Cellular Aβ-lowering assay
Type: cell-based
Conditions: HEK293 cells stably expressing human APP695, Aβ40 in supernatant by ELISA after 18-20 hrs; read-out: Cellular assay Abeta40 IC50
pIC50: −log10 of the molar value. Where a name gives a salt, the structure may show the parent alone.
MEASUREMENT_KIND: pIC50

Solved entries (count: 10):
CC[C@]1(c2cc(NC(=O)c3n[nH]cc3Cl)ccc2F)N=C(N)COCC1(F)F [Example 86]; 6.43
C[C@@]1(c2cc(NC(=O)c3ccc(OCC(F)(F)F)cn3)ccc2F)CCOCC(N)=N1 [Example 12]; 8.05
C[C@@]1(c2cc(NC(=O)c3ccc(Cl)cn3)ccc2F)C[C@@H](c2ccccc2)OCC(N)=N1 [Example 69]; 5.29
C[C@]1(c2cc(NC(=O)c3ncccc3C(F)(F)F)ccc2F)N=C(N)COCC1(F)F [Example 37, formate]; 7.27
C[C@]1(c2cc(NC(=O)c3cnc(OCCF)cn3)ccc2F)N=C(N)COCC1(F)F [Example 71, formate]; 5.82
C[C@]1(c2cc(NC(=O)c3nn(CC(F)(F)F)cc3Cl)ccc2F)N=C(N)COCC1(F)F [Example 106]; 6.20
CC(C)Oc1ccc(C(=O)Nc2ccc(F)c([C@@]3(C)N=C(N)COCC3(F)F)c2)nc1 [Example 67, formate]; 6.54
CC1(C)C[C@@](C)(c2cc(NC(=O)CC(F)(F)F)ccc2F)N=C(N)CO1 [Example 22]; 6.01
C[C@]1(c2cc(NC(=O)c3ncccc3OCC(F)(F)F)ccc2F)N=C(N)COC[C@@H]1F [Example 112]; 7.16
Cc1conc1C(=O)Nc1ccc(F)c([C@@]2(C)N=C(N)COCC2(F)F)c1 [Example 104]; 6.80

(a) Cc1ccc(C(=O)Nc2ccc(F)c([C@@]3(C)N=C(N)COCC3(F)F)c2)nc1 [Example 94, formate]
(b) Cn1ccc(C(=O)Nc2ccc(F)c([C@@]3(C)N=C(N)COCC3(F)F)c2)n1 [Example 43, formate]
Q: Rank a against b by their pIC50 values and give the higher one. When you have decided, please share the label of that item.
Ans: a
(a: 8.00, b: 7.64)

(a) C[C@]1(c2cc(NC(=O)c3ccccn3)ccc2F)N=C(N)COCC1(F)F [Example 35, formate]
(b) C[C@]1(c2cc(NC(=O)c3ccc(C(F)F)cn3)ccc2F)N=C(N)COCC1(F)F [Example 108, formate]
Q: Rank a against b by their pIC50 values and give the higher one. When you have decided, please share the label of that item.
Ans: b
(b: 8.24, a: 7.85)

(I) C[C@]1(c2cc(NC(=O)c3ncc(C#N)cc3Cl)ccc2F)N=C(N)COCC1(F)F [Example 56, formate]
(II) CCn1cc(Cl)c(C(=O)Nc2ccc(F)c([C@@]3(C)N=C(N)COCC3(F)F)c2)n1 [Example 95]
Q: Could you check which of I and II has a smaller value for pIC50? When you have decided, please share the label of that item.
Ans: II
(II: 7.66, I: 8.82)
